Property Measured: pIC50
Just so you know, pIC50 here is -log10 of the concentration in molar units; reply with that number alone.

Give the reported pIC50 for `COc1ccc2c(c[n+](C)c3c4cc(O)c(O)cc4ccc23)c1OC` (system: Cell division control protein 42 homolog (Homo sapiens)). 4.14

Item `Oc1cc2c(cc1O)-c1cc3ccc(O)c(O)c3c[n+]1CC2` with Cell division control protein 42 homolog (Homo sapiens) - pIC50? 5.22

Form: Entry = `Nc1nc2c(ncn2[C@H]2O[C@@H](COP(=O)(O)OP(=O)(O)O)[C@H](O)[C@@H]2O)c(=O)[nH]1` | System = Cell division control protein 42 homolog (Homo sapiens) | pIC50 = ____ 5.85
